Tested on: Per403 cells
Protocol: cells
Setup conditions: Homo sapiens, PER-403, 72 h, read-out: Per403 IC50 (inhibition of cell growth)
Measure: IC50

Name the recorded IC50 of the compound listed here: Cc1sc2c(c1C)C(c1ccc(Cl)cc1)=N[C@@H](CC(=O)OC(C)(C)C)c1nnc(C)n1-2 (single isomer, unassigned) [(+)-JQ1]
60 nM

---

Test system: 10326 cells
Protocol: Cell proliferation assay, 10326 patient-derived cell line
Type: cell-based
Setup conditions: Homo sapiens, 72 h, read-out: Cell-assay IC50 10326 cells
Measure: IC50 (µM)
Please reply with the bare figure in µM and do not write the unit itself.

Cc1sc2c(c1C)C(c1ccc(Cl)cc1)=N[C@@H](CC(=O)OC(C)(C)C)c1nnc(C)n1-2 [(S)-JQ1] | 0.0015

Moving on to another compound below.
Output measured IC50 for this item: Cc1sc2c(c1C)C(c1ccc(Cl)cc1)=N[C@H](CC(=O)OC(C)(C)C)c1nnc(C)n1-2 [(R)-JQ1]
11.8

The origin of these recorded values is patent US10407441B2.
